meta.source: PubChem BioAssay (NCI)

System: SNB-75 CNS
assay-summary: NCI tumour cell line growth inhibition, 48 h
Overview of recorded TGI for various compounds
quantity-measured: TGI

                                   compound    result
0  Cc1ccc(C)c(C2=C(c3cn(C)c4ccccc34)C(=O)NC2=O)c1   > 25 µM
1  Oc1c(C2=NNC(c3ccc(Cl)cc3Cl)C2)ccc2ccccc12 (stereo not given)  > 100 µM
2   [N-]=[N+]=NC12CC3C4CC5CC3C(C1)C(C5)C4C2  > 100 µM
3  O=c1c2sc(=S)n(-c3ccc(F)cc3)c2ncn1Cc1ccc(F)cc1F  > 100 µM
4  CC(C)(Br)C(Br)CCC1(C2CO2)CO1 (stereo not given)    > 5 µM
5  CC(=O)Nc1ccc(N2C(=O)/C(=C\c3cccc(Oc4ccccc4)c3)S(=O)(=O)C2c2ccccc2)cc1 (stereo not given)  > 100 µM
6  C=C(CCC/C(C)=C/C=C/[C@]1(C)CCCc2ccoc21)CC(=O)O  > 100 µM
7     CS(=O)(=O)Nc1ccc2c(c1)oc(=O)c1ccccc12  > 100 µM
8                          C=COCCCOc1ccccc1  > 100 µM
9  NC1CC(=O)c2c(Br)csc21 (stereo not given)  > 100 µM

----------
Test system: ACHN renal
assay-summary: NCI tumour cell line growth inhibition, 48 h
quantity-measured: TGI

compound	result
CC(C)CCN1c2nc(Nc3cc(F)c(O)c(F)c3)ncc2N(C)C(=O)C1C (configuration not stated)	> 59.5 µM
CCC[CH2][Sn]1([CH2]CCC)[O]N=C(c2ccccc2)C(c2ccccc2)[O]1 (configuration not stated)	3.1 µM
COc1cc(OC)c(-c2ccc(OCc3ccccc3)c3c(OC)cc(C)cc23)c2c1C(C)=N[C@H](C)C2	4.01 µM
CO/N=C/c1cc(OC)c(OC)c(OC)c1	> 100 µM
O=c1cc(N2CCOCC2)[nH]c(=O)n1-c1ccc(F)cc1	> 100 µM
Nc1ccc(-c2nc3cc(F)ccc3s2)cc1Cl	> 85 µM
O=C(CCn1[nH]c(=O)c(Cl)c(Cl)c1=O)NO	> 100 µM
NS(=O)(=O)c1ccc(N=Nc2nc3[nH]c(=O)[nH]c(=O)c3[nH]2)cc1	> 100 µM
Cc1cc(I)cc(CN(C)CCCN2CCCCCCC2)c1O	32.4 µM
CC(=O)O[C@H]1C[C@H]2[C@@H](OC(C)=O)/C=C3\C[C@](C)(C(=O)[C@H](O)C(=C1C)C2(C)C)[C@@H](O)C[C@@H]3OC(=O)[C@H](O)[C@H](c1ccccc1)N(C)C	> 100 µM
COc1cccc(/C=C/c2cc(OC)c(OC)c(OC)c2)c1	> 100 µM
CC(C)=CCNc1ncnc2c1ncn2C1OC(CO)C(O)C1O (configuration not stated)	> 526 µM
O=C(OC(CNc1cc(=O)n(Cc2ccccc2)c(=O)n1Cc1ccccc1)CN1CCCC1)c1ccccc1 (configuration not stated)	> 100 µM
COC(=O)C1=C(O)c2cc(OC)c(OC)cc2C(c2ccc(OC)c(OC)c2)C1 (configuration not stated)	> 100 µM
CCC(C)n1ncn(-c2ccc(N3CCN(c4ccc(OCC5COC(Cn6cncn6)(c6ccc(Cl)cc6Cl)O5)cc4)CC3)cc2)c1=O (configuration not stated)	> 100 µM
CCOC(=O)c1c(NC(=O)c2cccs2)sc2c1CCCC2	> 100 µM
O=C(NCC(=O)N1CCCC1C(=O)OC(=O)C1CCCN1C(=O)CNC(=O)OCc1ccccc1)OCc1ccccc1 (configuration not stated)	> 100 µM
